# MEASURED ON: Chk1 (Homo sapiens)
# Construct: purchased Upstate Biotechnology
# Sequence (O14757 whole entry): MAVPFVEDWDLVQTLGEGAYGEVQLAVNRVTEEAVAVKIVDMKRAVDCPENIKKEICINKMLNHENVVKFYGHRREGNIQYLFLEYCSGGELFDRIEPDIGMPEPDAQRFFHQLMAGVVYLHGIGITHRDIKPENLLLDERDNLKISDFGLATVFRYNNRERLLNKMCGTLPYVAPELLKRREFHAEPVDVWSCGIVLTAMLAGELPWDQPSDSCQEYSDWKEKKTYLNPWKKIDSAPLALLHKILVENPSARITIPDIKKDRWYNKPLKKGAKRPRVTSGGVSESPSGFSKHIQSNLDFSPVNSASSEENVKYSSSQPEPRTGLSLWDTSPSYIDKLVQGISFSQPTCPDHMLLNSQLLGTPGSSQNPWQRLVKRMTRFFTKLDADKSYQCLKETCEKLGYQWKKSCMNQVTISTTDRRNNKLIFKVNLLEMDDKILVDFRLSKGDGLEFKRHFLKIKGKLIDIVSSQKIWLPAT
# TEST SUMMARY: Chk1 kinase assay: incorporation of γ-33P ATP into immobilized myelin basic protein
# Assay type: biochemical
# CONDITION SET: read-out: Chk1 IC50
ASSAY METRIC: IC50

The examples below pair each entry with its known result.
1. CNC(=O)c1nc(-c2cccc(C(=O)NCc3ccc(Cl)cc3C)c2)cnc1N [Example 245] ... 0.05 to 1 µM
2. CNC(=O)c1nc(-c2cccc(C(=O)NCc3ccc(F)c(C(F)(F)F)c3)c2)cnc1N [Example 228] ... 0.05 to 1 µM
3. CNC(=O)c1nc(-c2cccc(C(=O)NC3CC3)c2)cnc1N [Example 278] ... 1 to 10 µM

I have this compound here, CNC(=O)c1nc(-c2cccc(C(=O)NCc3ccc(N4CCOCC4)cc3)c2)cnc1N [Example 343] , and I need its recorded IC50.
0.05 to 1 µM

Same question, CNC(=O)c1nc(-c2cccc(C(=O)NCc3cccc(O)c3)c2)cnc1N [Example 326] this time
0.05 to 1 µM

Same question, CCCCCc1ccc(C(=O)NCc2cccc(-c3cnc(N)c(C(=O)NC)n3)c2)cc1 [Example 351] this time
0.05 to 1 µM

Hello, the source for this data is patent US7704995B2, in case you need it.
